apparent KD of K4 kissing-loop reporter values for the sequences below.
system: K4 kissing-loop RNA reporter; test: apparent KD of K4 kissing-loop reporter; higher = weaker reporter binding; conditions: Eterna round: R107; input ligand: tryptophan 2.4 mM
Hi! Could you send only the number? It should be in nM, unit omitted.

| Sequence Data | apparent KD of K4 kissing-loop reporter, nM |
| --- | --- |
| AGGUCACCACUACAGUGAUGUUGUGGAGAGCAGGAUAUGCAGAAAUGCAGAAGGGCUCGCUCUCGGUGACCGAAUGAAACAUUCA [Omei KL FMN A SS A v7] | 704 |

Lookup: Which apparent KD of K4 kissing-loop reporter reading was recorded for the sequence UAUAUAUGAUGUGAUACCAGUGAAAAGCCAGUGAUGUUGGUAGAACUGGUAUAUAAAUGGCACCCUUGGCAGCACAAUCACGUAU [#28 K4 Theophylline B Exclusion] ?
Found: 117

Lookup: # input sequence: CGUGAAGACCAGAGGUGAUGUAUAGUAUCGCGAGGACCGGUACGGCCGCCACUCGUGAAGAGAAAGGAGUGAUGUUCCGUAAUGG [C12] ; wanted: its apparent KD of K4 kissing-loop reporter
Found: 107

---

tested on: MS2 coat protein; experiment: apparent KD of MS2 coat protein; designed switch direction (-1 OFF switch, 1 ON switch): -1; higher = weaker reporter binding; settings: input ligand: none
# apparent KD of MS2 coat protein annotations
Lab book: enter the figure in nM, no units written.

| Sequence Data | apparent KD of MS2 coat protein / nM |
| --- | --- |
| GUCACAUGGAUGUAGGAUCACAUGAGGAUCACCCAUGUGACUAACAAGGUUUUUGCUCAUCUUAUGACUAUGUGAAU [A Brourd mod] (Eterna round: R97, puzzle: Sensor, turn-off variant 1) | 103 |
| UUUACAAGCUAAUGAUCCCACAUGAGGAUCACCCAUGUUGCUGCCGGUGACGGUAGCAUAACAUUUGCUCGUCUUAU [JL TOV1 3.58] (Eterna round: R97, puzzle: Sensor, turn-off variant 1) | 1010 |
| UUGUUAUAUGUAGGAUAUGCGUGUUAUUAUUAGGCAGAAGGACAUGAGGAUCACCCAUGUAUGUUGUUGUUAUAUAUUAUAUAU [Title] (Eterna round: R96, puzzle: Exclusion NG 1) | 25.6 |

Okay, next one:
Lookup: Request the reported apparent KD of MS2 coat protein associated with GCAAGCUUUUUCAAUAAGAACAUGAGGAUCACCCAUGUUUAAGGUAUUACUUUUGGGCUCUUUAGUGCUAGUCUUAU [JR_STOV1_Sub036] (Eterna round: R97, puzzle: Sensor, turn-off variant 1)
Found: 45.5

---

Below: a set of entries, each annotated with reported apparent KD of MS2 coat protein.
system: MS2 coat protein; assay: apparent KD of MS2 coat protein; designed switch direction (-1 OFF switch, 1 ON switch): 1; higher = weaker reporter binding; details: Eterna round: R95; input ligand: none
Report the value in nM with no unit label.

Illustrative cases are given below, each with its answer.
| Sequence Data | Readout Unit | apparent KD of MS2 coat protein |
| --- | --- | --- |
| GCGCGAAAGAGCGAGGAUAUGCGGCGUAUAACAUGAGGAUCACCCAUGUCCUUCGAAUCUUGUACGCAGAAGGCGCUACAGGCGC [Robot Leg] (puzzle: Same State 2) | nM | 62.2 |
| UUUAGUUGCGGGCAGGAUAUGUAUUAAAAUACAUGAGGAUCACCCAUGUGAGGCCGAAAAGGCCUACAGAAGGGCCAAUCGCGAC [Laonerce - 22] (puzzle: Same State 2) | nM | 63 |

Read the next record carefully.
Lookup: // lookup apparent KD of MS2 coat protein for GGUCCAGCCUGAGCUGGACAAAAGCAUGUACAUGAGGAUCACCCAUGUCAUGUACAAGCUUUUUGUUCGUCUUAAAA [JL mod - D87 - 13] (puzzle: Sensor for hsa-mir-208a)
Found: 344

---

tested on: MS2 coat protein; test: apparent KD of MS2 coat protein; designed switch direction (-1 OFF switch, 1 ON switch): -1; higher = weaker reporter binding; settings: Eterna round: R95; input ligand: microRNA oligo, concentration not stated
The sequences listed here are annotated with their apparent KD of MS2 coat protein.
Respond numerically; units are nM and should not be typed.

Answered cases to consult:
| Sequence Data | Readout Unit | apparent KD of MS2 coat protein |
| --- | --- | --- |
| AUAUUGUGAGGAUAUCAGGUGUGCUAGCGUACUGGUACAUCUGAGAAGGCACAUGAGGAUCACCCAUGUUUCUU [Mat - Exclusion 4 - Mod of JL - D42] (puzzle: Exclusion 4) | nM | 15.2 |
| GUUAAACAUGAGGAUCACCCAUGUAAGGAUAUGCUGAGGUAGCGCUGACGUGAAUGAAGCAGAAGGUACAAAUG [Mat - Mod of JL D64] (puzzle: Exclusion 1) | nM | 93.3 |
| CUAUUGUGAGGAUAUCAGGUGUGCUAGCGUACUGGUACAUCUGAGAAGGCACAUGAGGAUCACCCAUGUUUCUU [JL-ex4-3.20 Brourd mod] (puzzle: Exclusion 4) | nM | 18.4 |
| GCGUGACAUGAGGAUCACCCAUGUGAGGAUAUCUGGAUACUCUUUAUUUUAGAUAUCCAGAGAAGGCACAUGCU [Ex1-3: 4Z] (puzzle: Exclusion 1) | nM | 191 |
| AAUAACAGAGGAUAUACUAUAAUAUGAAUAAAAUAAAUAAAACAUGAGGAUCACCCAUGUAGAAGGCUGAAUAA [JMF's Not so obvious solution 10] (puzzle: Exclusion 2) | nM | 20 |

Attention now shifts to the item below.
Lookup: Please look up its apparent KD of MS2 coat protein: AUAAGCUUUGAGAUCCUUAACAUGAGGAUCACCCAUGUUCGUCUUAUGAUGGUCUGAUCCCUGAGGAUCGGACCGUU [JL-sv1-2.02 Brourd Mod] (puzzle: Sensor v3, turn-off variant 1)
Found: 10.4

---

# apparent KD of MS2 coat protein per entry
test system: MS2 coat protein; experiment: apparent KD of MS2 coat protein; designed switch direction (-1 OFF switch, 1 ON switch): -1; higher = weaker reporter binding; settings: input ligand: none
Supply the numeric figure in µM, leaving out any unit text.

Examples from the recorded data:
| Sequence Data | apparent KD of MS2 coat protein (µM) |
| --- | --- |
| AGUCGAAAGAACCACAUGGACAUGAGGAUCACCCAUGUGCAAGCCUUUUUCUCGUCACUAUCGUCAAAAGACGAUAG [Omei Mir Offv1 A5] (Eterna round: R97, puzzle: Sensor, turn-off variant 1) | 0.227 |
| ACAUGUACAGAGGAUAUGCGCCUUGGCAAUGGUGUAGAAGGCUGAACAUGAGGAUCACCCAUGUGCAAUCCAAC [EX6 A.5] (Eterna round: R97, puzzle: Exclusion 6) | 0.0554 |

Lookup: What measured apparent KD of MS2 coat protein goes with AUCCCGCGAGGAUAUACAUGAGGAUCACCCAUGUAGGUUCUGGAUGGGCGAAAUUUGUGUAGAAGGCGCACCAA [Tibeaqu] (Eterna round: R96, puzzle: Exclusion 3) ?
Found: 0.052

---

tested on: K4 kissing-loop RNA reporter; assay: apparent KD of K4 kissing-loop reporter; higher = weaker reporter binding; conditions: Eterna round: R107; input ligand: tryptophan 2.4 mM;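 also: bound reporter read as fluorescence of individual clusters on recovered sequencing chips by microscopy, with normalized cluster intensities fitted with a binding model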
# apparent KD of K4 kissing-loop reporter per entry
Field: numeric (nM). Do not append units.

Would you please look over these solved cases?
| Sequence Data | Readout Unit | apparent KD of K4 kissing-loop reporter |
| --- | --- | --- |
| GGACGACAGUCGGCCGCCACUCACAGCAGCCAGUGAUGUUGGAUUGUAGCGGAGUGAUGUUUCGCGAGGACCGGGACUGCAGUCC [Same State Tryptophan B GF 14] | nM | 199 |
| UGACUGGACUGAAGGAGCGCUUAACUCCUAGUGAUGUUAGGACAACGAGACAAAGUCUCGAAGCAGGUAGGUCGCAGUCUAGUCU | nM | 199 |

Now turn to the next sequence.
Lookup: # get_value(readout='apparent KD of K4 kissing-loop reporter', item= ACGGAUUCGAAUACCGAAUGAAAUAGGGAUACCAGCACGUGAACGUGCCCUUGGCAGCCCAGCCCAGUGAUGUUGGGCCCAUGGC [Biso] )
Found: 204

---

test system: MS2 coat protein; assay: apparent KD of MS2 coat protein, switch ON state; designed switch direction (-1 OFF switch, 1 ON switch): 1; higher = weaker reporter binding; conditions: FMN input: 0 or 200 uM; Eterna round: R93 (includes R88 designs)
Quantity: apparent KD of MS2 coat protein (nM)
Enter your answer as a number in nM; do not include the unit.

Answered examples (4):
| Sequence Data | Subject Of Test | apparent KD of MS2 coat protein [nM] |
| --- | --- | --- |
| AAAAAUAAAACACAGGAUAUCCAAAAGAAAACAUGAGGAUCACCCAUGUAAAGAAAAUAAAAAUGGGAGAAGGGUGAAAAUAAGA [Mat - Same State 2 - JL mod - D21] | MS2 coat protein | 29.9 |
| GAGAAACAUGAGGAUCACCCAUGUAGAGAUAUGGGAGGAUAUACAGAGACGAGAGUCAAAGUAGAAGGCCUAGAAG [77%, Mat - Mod of Eli - With 5 more G's] | MS2 coat protein | 25.5 |
| AGGAAACAUGAGGAUCACCCAUGUAAAAAUAUGGAAGGAUAUGGAAACACGAAAGUGAAACCAGAAGGUUCAAAAA [77%, Mat - Mod of Eli, 22] | MS2 coat protein | 18.5 |
| AAAAGACAUGAGGAUCACCCAUGUUAAGACGUAGGAGGAUAUGUAUGGAAAACAUGCUGUACAGAAGGCCUGUGUC [SS1 - 26] | MS2 coat protein | 17.8 |

Lookup: Can you share its apparent KD of MS2 coat protein? I mean this sequence: AGGAAACAUGAGGAUCACCCAUGUAAAAAUAUAGGAGGAUAUGCGAAAAGAAACAAAGAAGCAGAAGGCUUAAAAA [75%, Ex sub1, 22]
Found: 13.1

Lookup: // query apparent KD of MS2 coat protein value for entry AGAAAUAAAAGGCAGGAUAUCCAAAAGAAAACAUGAGGAUCACCCAUGUAAAAGAAAAUAAAGUGGGAGAAGGGCCAAAAUAAAG [My design (73%) + Space bases]
Found: 11.7

Lookup: Given the sequence AAAAGACAUGAGGAUCACCCAUGUAAAAACAUAGGAGGAUAUGUCGUGAAAAAAGACUUGGCAGAAGGCCUAUGUC [SS1 - 44] , what is its reported apparent KD of MS2 coat protein?
Found: 19.7

Lookup: Request the reported apparent KD of MS2 coat protein associated with AACAAUCUAUCUGAGGAUAUCAUGUAAAAGACAUGAGGAUCACCCAUGUUGCAGGAAACUGCUCAUGAGAAGGCAGAUAGAUUGA [SS2: 1125]
Found: 12.8

Lookup: Quick check: apparent KD of MS2 coat protein of AUAAAAUAAAAGGAGGAUAUCCUUAAUAAAACAUGAGGAUCACCCAUGUAAAAAAUAAUAAAAUGGGAGAAGGCCUAAAAUAAAU [SS2 M 26] ?
Found: 24.2

Lookup: Item under review: AGAAAACAUGAGGAUCACCCAUGUAGGAAUAUGGGAGGAUAUACAAAGACGAAAGUCAGAGUAGAAGGCCUAAGAA [salish99-SS1-087] . Reported apparent KD of MS2 coat protein?
Found: 24.1

Lookup: GET /values?readout=apparent KD of MS2 coat protein&item= AAUAAUUAUACGAAGGAUAUCGGUAAUUAGACAUGAGGAUCACCCAUGUUAUAUGGUUAAAUAUUCGAGAAGGUCGAGGGUGAAA [JR_SS002_Sub505]
Found: 36.1

Lookup: Reported apparent KD of MS2 coat protein for AGCACGGGAUUGGAGGAUAUGUUGUUUGCAACAUGAGGAUCACCCAUGUCUGAGGCUGAAAAGCAGCAGAAGGCCGAUACAACCA [SS2-1.2] : what is it?
Found: 43.8
